Catalogue of IC50 values
# target desc: rec-α5LG45 protein—heparin binding (Mus musculus)
# Sequence (Q61001 3318-3718): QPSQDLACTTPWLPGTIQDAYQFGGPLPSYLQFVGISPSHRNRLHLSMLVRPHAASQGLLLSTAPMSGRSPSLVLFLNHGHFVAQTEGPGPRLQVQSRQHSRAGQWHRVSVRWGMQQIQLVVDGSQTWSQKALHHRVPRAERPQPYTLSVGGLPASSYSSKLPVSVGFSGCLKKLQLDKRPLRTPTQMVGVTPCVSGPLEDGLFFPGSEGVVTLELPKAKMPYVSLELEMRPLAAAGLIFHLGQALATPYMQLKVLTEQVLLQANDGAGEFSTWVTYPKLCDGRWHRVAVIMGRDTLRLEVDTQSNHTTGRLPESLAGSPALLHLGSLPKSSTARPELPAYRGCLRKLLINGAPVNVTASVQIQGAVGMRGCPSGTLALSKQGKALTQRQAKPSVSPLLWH
# experimental protocol: Peptide inhibition of heparin-binding to rec-α5LG45
No end group written: not given here.
Express the result in µM but write the number alone.

Solved cases below.
• KMPYVSLELEMR-NH2 [A5G94, KMPYVSLELEMR] = 0.84
• LVLFLNHGHFVA-NH2 [A5G77, LVLFLNHGHFVA] = 7
• AGQWHRVSVRWG-NH2 [A5G81, AGQWHRVSVRWG] = 5.9

Using the record for GPLPSYLQFVGI-NH2 [A5G71, GPLPSYLQFVGI] , report its IC50.
91.8
